biological target: D168A mutant of the HCV NS3/4A 1b protease enzyme (Hepatitis C virus genotype 1b, UniProt P26663, D1194A); construct: 10× stocks of NS3/4A protease enzyme from Bioenza (Mountain View, Calif.); purchased Bioenza (Mountain View, Calif.); test: HCV Protease FRET Assay (IC50_APP), D168A mutant; type: biochemical; conditions: apparent IC50, D168A mutant; read-out: IC50_APP, HCV D168A
pIC50: −log10 of the molar value.
outcome_measure: pIC50

C=CC(=O)N[C@@H](C(=O)N1C[C@H](Oc2nccc3cc(OC)ccc23)C[C@H]1C(=O)N[C@]1(C(=O)NS(=O)(=O)C2CC2)C[C@H]1C=C)C(C)(C)O = 6.00 to 7.00

Please state, for each entry, its recorded pIC50.
1. C=CC(=O)NC[C@H](NC(=O)OC(C)(C)C)C(=O)N1C[C@H](Oc2nccc3cc(OC)ccc23)C[C@H]1C(=O)N[C@]1(C(=O)NS(=O)(=O)C2CC2)C[C@H]1C=C
2. C=CC(=O)NC[C@H](NC(=O)OC(C)(C)C)C(=O)N1C[C@H](Oc2cc(-c3ccccc3)nc3cc(OC)ccc23)C[C@H]1C(=O)N[C@]1(C(=O)NS(=O)(=O)C2CC2)C[C@H]1C=C
3. C=CC(=O)N(C)C[C@@H]1NC(=O)OCCC/C=C/c2ccc3ccnc(c3c2)O[C@@H]2C[C@@H](C(=O)N[C@]3(C(=O)NS(=O)(=O)C4CC4)C[C@H]3C=C)N(C2)C1=O
4. C=C[C@@H]1C[C@]1(NC(=O)[C@@H]1C[C@@H](Oc2cc(-c3ccccc3)nc3cc(OC)ccc23)CN1C(=O)C(CN(C)C(=O)C(=C)C(F)(F)F)NC(=O)OC(C)(C)C)C(=O)NS(=O)(=O)c1ccccc1 (stereo in doubt)
5. C=C[C@@H]1C[C@]1(NC(=O)[C@@H]1C[C@@H](Oc2cc(-c3ccccc3)nc3cc(OC)ccc23)CN1C(=O)[C@H](CN(C)C(=O)/C=C/CN(C)C)NC(=O)OC(C)(C)C)C(=O)NS(=O)(=O)c1ccccc1
6. C=CC(=O)NC[C@H](NC(=O)OC(C)(C)C)C(=O)N1C[C@H](Oc2nc3ccccc3nc2-c2cccs2)C[C@H]1C(=O)N[C@]1(C(=O)NS(=O)(=O)C2CC2)C[C@H]1C=C

Reply text:
["6.00 to 7.00", "6.00 to 7.00", "5.00 to 6.00", "6.00 to 7.00", "5.00 to 6.00", "5.00 to 6.00"]

I have 6 compounds here; please give me pIC50 for each one.
1. C=CC(=O)N[C@H](C)C(=O)N1C[C@H](Oc2cc(-c3ccccc3)nc3cc(OC)ccc23)C[C@H]1C(=O)N[C@]1(C(=O)NS(=O)(=O)c2ccccc2)C[C@H]1C=C
2. C=C[C@@H]1C[C@]1(NC(=O)[C@@H]1C[C@@H](Oc2nccc3cc(OC)ccc23)CN1C(=O)[C@H](CC(=O)C(=C)C)NC(=O)OC(C)(C)C)C(=O)NS(=O)(=O)C1CC1
3. C=C[C@@H]1C[C@]1(NC(=O)[C@@H]1C[C@@H](Oc2nccc3ccc(-c4cccs4)cc23)CN1C(=O)[C@H](CCC(=O)C=C(C)C)NC(=O)OC(C)(C)C)C(=O)NS(=O)(=O)C1CC1
4. C=CC(=O)N[C@H](C)C(=O)N1C[C@H](Oc2nccc3ccc(Br)cc23)C[C@H]1C(=O)N[C@]1(C(=O)NS(=O)(=O)C2CC2)C[C@H]1C=C
5. C=CC(=O)N[C@H](C(=O)N1C[C@H](Oc2cc(-c3ccccc3)nc3cc(OC)ccc23)C[C@H]1C(=O)N[C@]1(C(=O)NS(=O)(=O)c2ccccc2)C[C@H]1C=C)C(C)C
6. C=C[C@@H]1C[C@]1(NC(=O)[C@@H]1C[C@@H](Oc2cc(-c3ccccc3)nc3cc(OC)ccc23)CN1C(=O)[C@H](CCC(=O)N1CCC1=O)NC(=O)OC(C)(C)C)C(=O)NS(=O)(=O)C1CC1

Reply text:
1. 6.00 to 7.00
2. > 8.00
3. 6.00 to 7.00
4. 6.00 to 7.00
5. 5.00 to 6.00
6. > 8.00

Hey, quick one: what's pIC50 for each of these?
1. C=C[C@@H]1C[C@]1(NC(=O)[C@@H]1C[C@@H](Oc2nccc3ccc(Br)cc23)CN1C(=O)[C@H](CCC(=O)/C(C)=C/C)NC(=O)OC(C)(C)C)C(=O)NS(=O)(=O)C1CC1
2. C=CC(=O)NC[C@H](NC(=O)OC1CCCC1)C(=O)N1C[C@H](Oc2cc(-c3ccccc3)nc3cc(OC)ccc23)C[C@H]1C(=O)N[C@]1(C(=O)NS(=O)(=O)C2CC2)C[C@H]1C=C
3. C=CC(=O)NCC(NC(=O)OC(C)(C)C)C(=O)N1CC(n2nnc(-c3ccc(OC)cc3)n2)CC1C(=O)NC1(C(=O)NS(=O)(=O)C2CC2)CC1C=C (stereo not shown)
4. C=CC(=O)NCC(=O)N1C[C@H](Oc2cc(-c3ccccc3)nc3cc(OC)ccc23)C[C@H]1C(=O)N[C@]1(C(=O)NS(=O)(=O)C2CC2)C[C@H]1C=C
5. C=CC(=O)N[C@@H](C(=O)N1C[C@H](Oc2cc(-c3ccccc3)nc3cc(OC)ccc23)C[C@H]1C(=O)N[C@]1(C(=O)NS(=O)(=O)C2CC2)C[C@H]1C=C)c1ccccc1
6. C=C[C@@H]1C[C@]1(NC(=O)[C@@H]1C[C@@H](Oc2cc(-c3ccccc3)nc3cc(OC)ccc23)CN1C(=O)[C@H](CCC(=O)C=C(C)C)NC(=O)OC(C)(C)C)C(=O)NS(=O)(=O)C1CC1

Reply text:
["5.00 to 6.00", "6.00 to 7.00", "5.00 to 6.00", "6.00 to 7.00", "6.00 to 7.00", "6.00 to 7.00"]

###

Would you mind telling me the reported IC50 of each entry?
biological target: A156T mutant of the HCV NS3/4A 1b protease enzyme (Hepatitis C virus genotype 1b, UniProt P26663, A1182T); construct: 10× stocks of NS3/4A protease enzyme from Bioenza (Mountain View, Calif.); purchased Bioenza (Mountain View, Calif.); experiment: HCV Protease FRET Assay (IC50_APP), A156T mutant; assay type: biochemical; settings: apparent IC50, A156T mutant; read-out: IC50_APP, HCV A156T

Example compounds with recorded IC50:
C=C[C@@H]1C[C@]1(NC(=O)[C@@H]1C[C@@H](Oc2cc(-c3ccccc3)nc3cc(OC)ccc23)CN1C(=O)[C@H](CCC(=O)N[C@H]1COC1=O)NC(=O)OC(C)(C)C)C(=O)NS(=O)(=O)C1CC1 [Compound I-69] = 100 to 1000 nM
C=CC(=O)N[C@H](CC(C)C)C(=O)N1C[C@H](Oc2nccc3cc(OC)ccc23)C[C@H]1C(=O)N[C@]1(C(=O)NS(=O)(=O)C2CC2)C[C@H]1C=C [Compound I-105] = < 10 nM

The record that follows has no IC50 shown yet.
Inquiry: Quote IC50 reported for C=CC(=O)N(C)C[C@H](NC(=O)OC1CCCC1)C(=O)N1C[C@H](Oc2cc(-c3ccccc3)nc3cc(OC)ccc23)C[C@H]1C(=O)N[C@]1(C(=O)NS(=O)(=O)C2CC2)C[C@H]1C=C [Compound I-72] please.
Reply text: 100 to 1000 nM

###

system: HCV RNA replicon in cell line ET (luc-ubi-neo/ET), human Huh7 hepatoma; assay: Luciferase Assay (Example 35), replicon-derived luciferase activity; assay type: cell-based; settings: Hepatitis C virus, Huh-7; EC90; assay described in Example 35
Assign EC90 to each entry below.

Answered examples (2):
C=C[C@@H]1C[C@]1(NC(=O)[C@@H]1C[C@@H](Oc2nccc3ccc(Br)cc23)CN1C(=O)[C@H](CCC(=O)/C(C)=C/C)NC(=O)OC(C)(C)C)C(=O)NS(=O)(=O)C1CC1 [Compound I-91] = 100 to 1000 nM
C=C[C@@H]1C[C@]1(NC(=O)[C@@H]1C[C@@H](Oc2nccc3cc(OC)ccc23)CN1C(=O)[C@H](CCC(=O)/C(C)=C/C)NC(=O)OC(C)(C)C)C(=O)NS(=O)(=O)C1CC1 [Compound I-95] = 100 to 1000 nM

Inquiry: Determine from records and report EC90 for C=C[C@@H]1C[C@]1(NC(=O)[C@@H]1C[C@@H]2CN1C(=O)[C@H](CCC(=O)C=C(C)C)NC(=O)OCCC/C=C/c1ccc3ccnc(c3c1)O2)C(=O)NS(=O)(=O)C1CC1 [Compound I-102]
Reply text: 10 to 100 nM

###

target: C159S mutant of the HCV NS3/4A 1b protease enzyme (Hepatitis C virus genotype 1b, UniProt P26663, C1185S); construct: 10× stocks of NS3/4A protease enzyme from Bioenza (Mountain View, Calif.); assay: HCV Protease FRET Assay (IC50_APP), C159S mutant; conditions: apparent IC50, C159S mutant
outcome_measure: IC50

Use these answered entries as a reference point.
C=C[C@@H]1C[C@]1(NC(=O)[C@@H]1C[C@@H](Oc2nccc3cc(OC)ccc23)CN1C(=O)[C@H](CCC(=O)C=C(C)C)NC(=O)OC(C)(C)C)C(=O)NS(=O)(=O)C1CC1 = < 10 nM
C=CC(=O)N[C@H](CC(C)C)C(=O)N1C[C@H](Oc2nccc3cc(OC)ccc23)C[C@H]1C(=O)N[C@]1(C(=O)NS(=O)(=O)C2CC2)C[C@H]1C=C = 100 to 1000 nM
C=CC(=O)N[C@H](Cc1ccccc1)C(=O)N1C[C@H](Oc2nccc3cc(OC)ccc23)C[C@H]1C(=O)N[C@]1(C(=O)NS(=O)(=O)C2CC2)C[C@H]1C=C = 100 to 1000 nM
C=CC(=O)NCC(NC(=O)OC(C)(C)C)C(=O)N1CC(n2nnc(-c3ccc(OC)cc3)n2)CC1C(=O)NC1(C(=O)NS(=O)(=O)C2CC2)CC1C=C (stereo not shown) = 100 to 1000 nM
C=CC1CC1(NC(=O)C1CC(n2nnc(-c3ccc(OC)cc3)n2)CN1C(=O)C(CCC(=O)C=C(C)C)NC(=O)OC(C)(C)C)C(=O)NS(=O)(=O)C1CC1 (stereo not shown) = 10 to 100 nM
C=CC(=O)NC[C@H](NC(=O)OC(C)(C)C)C(=O)N1C[C@H](Oc2nc3ccccc3nc2-c2cccs2)C[C@H]1C(=O)N[C@]1(C(=O)NS(=O)(=O)C2CC2)C[C@H]1C=C = 100 to 1000 nM

Please find the next compound below.
Inquiry: For the compound C=C[C@@H]1C[C@]1(NC(=O)[C@@H]1C[C@@H](Oc2nc3ccccc3nc2-c2cccs2)CN1C(=O)[C@H](CCC(=O)C=C(C)C)NC(=O)OC(C)(C)C)C(=O)NS(=O)(=O)C1CC1 , give its reported IC50.
Reply text: 10 to 100 nM
